# IC50 annotations
system-name: TLR8 (Homo sapiens)
Sequence (Q9NR97 27-1041): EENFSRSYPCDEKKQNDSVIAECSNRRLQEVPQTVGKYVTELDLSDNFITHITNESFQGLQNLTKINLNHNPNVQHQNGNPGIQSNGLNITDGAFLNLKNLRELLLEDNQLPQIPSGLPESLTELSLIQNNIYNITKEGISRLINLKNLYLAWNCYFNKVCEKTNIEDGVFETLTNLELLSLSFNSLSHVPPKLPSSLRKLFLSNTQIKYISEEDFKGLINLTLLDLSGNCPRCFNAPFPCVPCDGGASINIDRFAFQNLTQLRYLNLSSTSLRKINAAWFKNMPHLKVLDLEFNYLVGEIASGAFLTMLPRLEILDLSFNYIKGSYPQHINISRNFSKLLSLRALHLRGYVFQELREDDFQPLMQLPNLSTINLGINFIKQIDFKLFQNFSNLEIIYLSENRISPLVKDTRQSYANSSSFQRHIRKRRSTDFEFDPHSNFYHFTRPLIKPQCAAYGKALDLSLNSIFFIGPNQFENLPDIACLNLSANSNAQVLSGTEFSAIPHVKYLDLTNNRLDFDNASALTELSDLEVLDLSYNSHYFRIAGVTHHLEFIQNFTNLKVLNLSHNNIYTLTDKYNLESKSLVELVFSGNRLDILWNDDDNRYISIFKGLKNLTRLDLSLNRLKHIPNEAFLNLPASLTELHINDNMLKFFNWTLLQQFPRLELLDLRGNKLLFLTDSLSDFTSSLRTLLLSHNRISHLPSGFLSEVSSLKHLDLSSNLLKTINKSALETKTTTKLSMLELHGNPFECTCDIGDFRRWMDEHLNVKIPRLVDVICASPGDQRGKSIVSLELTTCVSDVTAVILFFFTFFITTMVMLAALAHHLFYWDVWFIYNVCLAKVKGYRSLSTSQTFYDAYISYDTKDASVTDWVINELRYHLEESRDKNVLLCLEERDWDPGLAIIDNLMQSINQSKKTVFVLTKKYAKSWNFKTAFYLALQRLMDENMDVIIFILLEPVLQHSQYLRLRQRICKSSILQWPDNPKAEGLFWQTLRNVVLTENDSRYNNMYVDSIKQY
measurement-description: huPBMC TLR8 Antagonist IL-6 TR-FRET Assay
Format: cell-based
Parameters: Fresh blood was collected from normal human donors; endogenous in cells; host or cells: human PBMCs from fresh donor blood
measurement-conditions: human PBMCs stimulated with ssRNA40 1 μg/ml (DOTAP), 14-16 hrs; IL-6 TR-FRET read-out
Give your result in nM as a bare value.

Known results for compounds:
Cc1cc(N2CCc3c(c(C)nn3CC34CCC(NC(=O)C5COCCN5C)(CC3)CC4)C2)c2cnn(C)c2n1 (stereo not shown) [compound 122] :: 922
Cc1nc(N2CCc3c(c(C)nn3CC34CCC(N)(CC3)CC4)C2)c2c(n1)c(C)nn2C [Compound No. 26] :: 289

Next:
Inquiry: Fill in reported IC50 for this entry: Cc1cc(N2CCc3c(c(C)nn3CC34CCC(N5CCO[C@@H](C)C5)(CC3)CC4)C2)c2cnn(C)c2n1 [compound 109]
Reply text: 16

###

Quick reference: pIC50 of the listed items.
system-name: TLR9 (Homo sapiens, UniProt Q9NR96)
Construct: Fresh blood was collected from normal human donors; endogenous in cells; host or cells: human PBMCs from fresh donor blood
Sequence (Q9NR96 26-1032): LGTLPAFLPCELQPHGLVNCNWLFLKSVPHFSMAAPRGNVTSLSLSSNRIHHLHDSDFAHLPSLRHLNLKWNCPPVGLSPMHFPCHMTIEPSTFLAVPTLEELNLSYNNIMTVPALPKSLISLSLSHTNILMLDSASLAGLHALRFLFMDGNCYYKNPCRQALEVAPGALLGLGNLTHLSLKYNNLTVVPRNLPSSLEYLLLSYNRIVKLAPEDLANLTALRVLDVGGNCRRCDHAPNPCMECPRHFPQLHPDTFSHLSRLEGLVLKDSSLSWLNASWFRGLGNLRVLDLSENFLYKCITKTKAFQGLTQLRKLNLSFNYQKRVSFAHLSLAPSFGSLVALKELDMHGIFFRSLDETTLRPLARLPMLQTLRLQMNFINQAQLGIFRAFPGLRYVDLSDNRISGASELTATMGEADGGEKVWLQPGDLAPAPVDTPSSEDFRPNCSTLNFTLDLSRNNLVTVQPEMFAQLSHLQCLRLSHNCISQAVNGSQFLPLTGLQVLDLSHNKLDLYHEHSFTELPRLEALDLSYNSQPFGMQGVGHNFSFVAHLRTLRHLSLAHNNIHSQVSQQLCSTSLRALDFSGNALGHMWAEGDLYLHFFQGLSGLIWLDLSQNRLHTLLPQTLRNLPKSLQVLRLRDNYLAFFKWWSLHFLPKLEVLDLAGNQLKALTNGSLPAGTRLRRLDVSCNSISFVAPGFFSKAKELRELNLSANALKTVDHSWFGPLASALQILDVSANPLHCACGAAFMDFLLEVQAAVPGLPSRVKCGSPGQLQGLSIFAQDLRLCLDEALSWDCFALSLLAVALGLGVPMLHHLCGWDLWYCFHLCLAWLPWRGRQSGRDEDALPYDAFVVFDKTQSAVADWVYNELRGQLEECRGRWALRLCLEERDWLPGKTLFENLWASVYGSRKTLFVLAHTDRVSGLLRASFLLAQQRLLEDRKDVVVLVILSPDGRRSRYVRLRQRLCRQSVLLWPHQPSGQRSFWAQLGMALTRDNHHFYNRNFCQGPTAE
measurement-description: huPBMC TLR9 Antagonist IFNα Assay
Type: cell-based
measurement-conditions: human PBMCs stimulated with ODN2216 0.3 μM, 14-16 hrs; IFNα2b AlphaLISA read-out
Scale: negative log10 of molar concentration, which is what pIC50 denotes.

Sample answers from the record:
CCNC12CCC(Cn3nc(C)c4c3CCN(c3ccnc(-c5ccccc5)c3)C4)(CC1)CC2 :: 6.26
Cc1nn(CC23CCC(N)(CC2)CC3)c2c1CN(c1nc(N)nc3c1cnn3C)CC2 :: 5.11
[2H]C([2H])([2H])N(C([2H])([2H])[2H])C12CCC(Cn3nc(C)c4c3CCN(c3nc(C)nc5c(C)nn(C)c35)C4)(CC1)CC2 :: 5.60

Inquiry: Send back TLR9 (Homo sapiens, UniProt Q9NR96) pIC50 of Cc1nn(CC23CCC(NC4CCC4)(CC2)CC3)c2c1CN(c1ccnc(-c3ccccc3)c1)CC2 only.
Reply text: 6.86

###

system-name: TLR7 (Homo sapiens, UniProt Q9NYK1)
Construct: Fresh blood was collected from normal human donors; endogenous in cells
Sequence (Q9NYK1 27-1049): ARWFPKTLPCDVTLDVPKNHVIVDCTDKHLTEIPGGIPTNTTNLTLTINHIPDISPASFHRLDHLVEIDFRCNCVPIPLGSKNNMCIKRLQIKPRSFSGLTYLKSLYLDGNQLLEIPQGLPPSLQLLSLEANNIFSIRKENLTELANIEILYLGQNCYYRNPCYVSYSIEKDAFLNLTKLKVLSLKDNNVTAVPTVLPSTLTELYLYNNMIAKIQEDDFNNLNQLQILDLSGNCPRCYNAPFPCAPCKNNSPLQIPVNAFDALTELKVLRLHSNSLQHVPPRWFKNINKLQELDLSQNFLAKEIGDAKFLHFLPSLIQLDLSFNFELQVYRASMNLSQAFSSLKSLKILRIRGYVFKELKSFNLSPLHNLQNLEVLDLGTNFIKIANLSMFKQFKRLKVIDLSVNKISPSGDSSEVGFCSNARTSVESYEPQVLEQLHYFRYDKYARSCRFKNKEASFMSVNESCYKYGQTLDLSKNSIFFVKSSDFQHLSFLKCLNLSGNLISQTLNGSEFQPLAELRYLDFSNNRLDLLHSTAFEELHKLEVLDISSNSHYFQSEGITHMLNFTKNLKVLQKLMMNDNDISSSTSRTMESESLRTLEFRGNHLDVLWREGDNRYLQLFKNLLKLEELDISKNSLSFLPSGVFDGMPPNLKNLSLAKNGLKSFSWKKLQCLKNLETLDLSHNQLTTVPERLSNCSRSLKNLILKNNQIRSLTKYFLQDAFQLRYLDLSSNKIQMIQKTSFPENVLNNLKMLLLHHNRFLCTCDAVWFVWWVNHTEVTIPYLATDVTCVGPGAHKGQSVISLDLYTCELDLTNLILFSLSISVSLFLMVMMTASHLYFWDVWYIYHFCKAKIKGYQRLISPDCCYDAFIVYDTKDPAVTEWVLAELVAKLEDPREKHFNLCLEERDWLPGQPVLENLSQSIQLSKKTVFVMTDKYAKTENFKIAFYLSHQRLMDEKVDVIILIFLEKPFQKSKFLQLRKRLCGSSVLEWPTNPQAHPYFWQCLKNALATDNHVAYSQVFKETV
measurement-description: huPBMC TLR7 Antagonist IFNα Assay
measurement-conditions: human PBMCs stimulated with ssRNA40 10 μg/mL (DOTAP), 14-16 hrs; IFNα2b AlphaLISA read-out
Listed here are compounds together with their documented pIC50.
Note: pIC50 values are expressed as the negative base-10 logarithm of concentration in M.

Example compounds with recorded pIC50:
CCNCC(=O)NC12CCC(Cn3nc(C)c4c3CCN(c3nc(C)nc5[nH]ncc35)C4)(CC1)CC2 :: 7.60
Cc1cc(N2CCc3c(c(C)nn3CC34CCC(N(C)C)(CC3)CC4)C2)c2cnn(C)c2n1 :: 7.80
CCNC12CCC(Cn3nc(C)c4c3CCN(c3cc(C)nc5c3cnn5C)C4)(CC1)CC2 :: 8.15

Inquiry: Identify measured pIC50 associated with Cc1cc(N2CCc3c(c(C)nn3CC34CCC(N)(CC3)CC4)C2)c2cnn(C)c2n1
Reply text: 7.60

Inquiry: Please report the measured pIC50 for Cc1nc(N2CCc3c(c(C)nn3CC34CCC(NC(=O)[C@H]5CNCCO5)(CC3)CC4)C2)c2c(n1)c(C)nn2C
Reply text: 8.15

Inquiry: Find the measured pIC50 of Cc1cc(N2CCc3c(c(C)nn3CC34CCC(NC(C)CO)(CC3)CC4)C2)c2cnn(C)c2n1 (stereo not shown) and report it.
Reply text: 8.15
